Target Of Assay: IMP-1 (Serratia marcescens, UniProt P52699)
Sequence (P52699 whole entry, looked up): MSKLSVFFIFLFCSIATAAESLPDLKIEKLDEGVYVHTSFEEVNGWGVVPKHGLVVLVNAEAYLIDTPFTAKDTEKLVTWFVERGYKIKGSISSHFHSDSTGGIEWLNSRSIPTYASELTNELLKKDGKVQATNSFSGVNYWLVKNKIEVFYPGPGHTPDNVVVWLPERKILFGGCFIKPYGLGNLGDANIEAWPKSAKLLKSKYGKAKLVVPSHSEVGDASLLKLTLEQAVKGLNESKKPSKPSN
Protocol Details: biochemical
Assay type: biochemical
Test Conditions: fluorescence assay with CCF2-FA substrate; read-out: IMP-1 IC50
Assay Readout: IC50
Please give the number followed by its unit.

// solved cases for IC50 follow
[[record]]
molecule = "NC1CCC(c2ccc(CC3CCNCC3)c(S(N)(=O)=O)c2-c2nn[nH]n2)CC1 (stereo not shown) [Example 839]"
assay_readout = "IC50"
observed = "359 nM"

[[record]]
molecule = "NS(=O)(=O)c1cccc(C2CCC(O)CC2)c1-c1nn[nH]n1 (stereo not shown) [Example 171]"
assay_readout = "IC50"
observed = "119 nM"

[[record]]
molecule = "NS(=O)(=O)c1cccc(C#CCN2CCS(=O)(=O)CC2)c1-c1nn[nH]n1 [Example 148]"
assay_readout = "IC50"
observed = "550 nM"


Okay, now this molecule:
For CNC1CC(N2CC(c3ccc(-c4ccc(C(F)(F)F)c(S(N)(=O)=O)c4-c4nnn[nH]4)cc3)C2)C1 (stereo not shown) [Example 815] the molecule record lists IC50 as 6.01 nM
